Assay: chemical genetic growth profiling, strain panel (AID 1159580);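 also: tested at 20 µM; growth read once vehicle control cultures reached saturation at 30 °C; 1 = growth at the plate median or of vehicle wells; lower values mean less growth of the strain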
Settings: S. cerevisiae deletion strains, growth OD, locus YOR061W, strain CKA2
Out of some 5,500 compounds screened, about 2,000 (36%) were called active. Not shown: some 18% with an inconclusive outcome. Rule as the data show it: active = normalized growth mostly below about 0.91 (no sharp cut-off); inconclusive = no clear call, values can overlap the other calls; inactive = mostly above about 0.92. The list shows a part of the results.
Possible outcomes: 1 (yes) = active, 0 (no) = inactive

compound	assigned-label
Cc1cc(C(C)(C)CC(C)(C)C)ccc1OCCOCC[N+](C)(C)Cc1ccccc1	1 (yes)
NC/C=C/C(=O)O	0 (no)
CCCCOc1ccc(C(=O)CCN2CCCCC2)cc1	1 (yes)
CCC(C(N)=O)c1ccccc1 (stereo not drawn)	0 (no)
O=[N+]([O-])O[C@H]1CO[C@H]2[C@@H]1OC[C@H]2O[N+](=O)[O-]	0 (no)
COC(=O)COc1cc(Cl)c(Cl)cc1Cl	0 (no)
CCCCOc1ccc(OCCCN2CCOCC2)cc1	0 (no)
O=C(O)c1ccccc1OP(=O)(O)O	0 (no)
CC(C)(C)CC(C)(C)c1ccc(OCCOCC[N+](C)(C)Cc2ccccc2)cc1	0 (no)
OC(CCN1CCCCC1)(c1ccccc1)c1ccccc1	0 (no)
COC(=O)COc1ccc(Cl)cc1Cl	0 (no)
NC(N)=NOCC[C@H](N)C(=O)O	0 (no)
Cc1ccc(C(=O)C(C)CN2CCCCC2)cc1 (stereo not drawn)	0 (no)

----------
Test: chemical genetic growth profiling, strain panel (AID 1159580)
Settings: S. cerevisiae deletion strains, growth OD, locus YML032C, strain rad52
About 2,000 (36%) of roughly 5,500 compounds were called active. Roughly 18% stayed inconclusive and do not appear here. Cut-off read from the data, not from the text of the source: active = normalized growth mostly below about 0.91 (no sharp cut-off); inconclusive = no clear call, values can overlap the other calls; inactive = mostly above about 0.92. The list shows a part of the results.
Possible outcomes: 1 for active, 0 for inactive

molecule	assigned-label
C=C1CC[C@H](O)C/C1=C/C=C1\CCC[C@]2(C)C([C@H](C)/C=C/[C@H](C)C(C)C)CC[C@@H]12 (stereo partly drawn)	0
Cc1cc(=O)c2c(O)cc(O)c(C)c2o1	0
OCc1ccccc1O[C@@H]1O[C@H](CO)[C@@H](O)[C@H](O)[C@H]1O	0
COC(=O)COc1cc(Cl)c(Cl)cc1Cl	0
Oc1c(Cl)c(Cl)c(Cl)c(Cl)c1Cl	1
COc1c(O)cc2oc3cc(O)c(CC=C(C)C)c(O)c3c(=O)c2c1CC=C(C)C	1
COC(=O)COc1ccc(Cl)cc1Cl	0
CC(=C(CCOP(=O)(O)O)SC(=O)c1ccccc1)N(C=O)Cc1cnc(C)nc1N	0
CCCCCC(C)N (stereo not drawn)	0
Nc1nc2[nH]c(=O)c(=O)[nH]c2c(=O)[nH]1	0
S=C=NCc1ccccc1	1
Cc1cc(=O)c2c(O)c(C)c(O)cc2o1	0
Cn1cc[nH]c1=S	0
O=C(O)COc1cc(Cl)c(Cl)cc1Cl	0
CC(=O)OCC(CCn1cnc2cnc(N)nc21)COC(C)=O	0
Cc1c(O)cc(O)c2c(=O)c(-c3ccc(O)cc3)coc12	0
COc1ccc2c(c1)[C@@]1(C)CCC(=O)C[C@H]1CC2	0
O[C@H]1C=C2CCN3Cc4cc5c(cc4C(C23)[C@@H]1O)OCO5 (stereo partly drawn)	1
O=[N+]([O-])O[C@H]1CO[C@H]2[C@@H]1OC[C@H]2O[N+](=O)[O-]	0
c1ccc(CC2=NCCN2)cc1	0
CC1(C)C2CC[C@]3(C)C(C(=O)C=C4[C@@H]5C[C@@](C)(C(=O)O)CC[C@]5(C)CC[C@]43C)[C@@]2(C)CC[C@@H]1OC(=O)CCC(=O)O (stereo partly drawn)	0
CC1(C)S[C@@H]2[C@H](NC(=O)[C@H](NC(=O)N3CCNC3=O)c3ccccc3)C(=O)N2C1C(=O)O (stereo partly drawn)	0
CO[C@H]1C[C@H](O[C@H]2[C@H](C)[C@@H](OC3O[C@H](C)C[C@H](N(C)C)[C@H]3O)[C@@H](C)C[C@]3(CO3)C(=O)[C@H](C)[C@@H](O)[C@@H](C)[C@@H](C)OC(=O)[C@@H]2C)O[C@@H](C)[C@@H]1O (stereo partly drawn)	0

----------
Test: chemical genetic growth profiling, strain panel (AID 1159580)
Conditions: S. cerevisiae deletion strains, growth OD, locus YLL026W, stronger effect = lower value
About 2,000 (36%) of roughly 5,500 compounds were called active. Another 18% or so got no clear call; they are omitted. This is one part of the list.
normalized growth values for the molecules below.

molecule	normalized growth
CC1(C)C2CC[C@]3(C)C(C(=O)C=C4[C@@H]5C[C@@](C)(C(=O)O)CC[C@]5(C)CC[C@]43C)[C@@]2(C)CC[C@@H]1OC(=O)CCC(=O)O (stereo not given in full)	0.977
CC1(C)C2CC[C@]3(C)C(C(=O)C=C4[C@@H]5C[C@@](C)(C(=O)O)CC[C@]5(C)CC[C@]43C)[C@@]2(C)CC[C@@H]1O (stereo not given in full)	1.01
C=C1CC[C@H](O)C/C1=C/C=C1\CCC[C@]2(C)C([C@H](C)/C=C/[C@H](C)C(C)C)CC[C@@H]12 (stereo not given in full)	1.01
COc1ccc(-c2coc3c(O)c(OC)ccc3c2=O)cc1	0.966
COc1ccc(-c2coc3c(OC)c(OC)cc(O)c3c2=O)cc1	1.01

----------
normalized growth values for the molecules below.
Experiment: chemical genetic growth profiling, strain panel (AID 1159580)
Settings: S. cerevisiae deletion strains, growth OD, locus YJR043C, strain POL32, stronger effect = lower value
The whole screen tested about 5,500 compounds, of which about 2,000 (36%) were called active. Not shown: some 18% with an inconclusive outcome. Some of the results follow.
endpoint: normalized growth

molecule	observed-measurement
CC(C(=O)O)c1ccc2c(c1)[nH]c1ccc(Cl)cc12 (stereo unspecified)	1.01
O=C(O)c1cc(=O)c2cc(Cl)ccc2[nH]1	1.01
COc1ccc(C(=O)c2ccccc2O)c(O)c1	0.976
COc1ccc(OC)c(C(=O)c2cc(OC)c(OC)c(OC)c2)c1	1.02
CC12CCC(C1)C(C)(C)C2NC(=O)c1cccs1 (stereo unspecified)	0.956
CCCCCCCc1c(O)c2ccccc2[nH]c1=O	1

----------
Assay: chemical genetic growth profiling, strain panel (AID 1159580);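 also: tested at 20 µM; growth read once vehicle control cultures reached saturation at 30 °C; 1 = growth at the plate median or of vehicle wells; lower values mean less growth of the strain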
Details: S. cerevisiae deletion strains, growth OD, locus YDR502C, strain sam2, stronger effect = lower value
The whole screen tested about 5,500 compounds, of which about 2,000 (36%) were called active. Another 18% or so got no clear call; they are omitted. The list shows a part of the results.

molecule	normalized growth
NC(N)=NOCC[C@H](N)C(=O)O	0.995
CCc1cccc(C)c1N(C(=O)CCl)C(C)COC (configuration not stated)	1.02
NC(=O)N1c2ccccc2CC(=O)c2ccccc21	0.994
COc1ccc(-c2coc3c(O)c(OC)ccc3c2=O)cc1	0.936
COc1ccc(-c2coc3c(OC)c(O)ccc3c2=O)cc1	0.953
CC(C)[N+](C)(CCOC(=O)C1c2ccccc2Oc2ccccc21)C(C)C	1
CC(C)N(C(=O)CCl)c1ccccc1	1.02
COc1ccc(-c2coc3c(OC)c(OC)ccc3c2=O)cc1	0.986
CC[C@@H](CO)NCCN[C@@H](CC)CO	1.03
COc1ccc(-c2coc3c(OC)c(OC)cc(O)c3c2=O)cc1	0.95
CCc1ccc(CCOc2ccc(CC3SC(=O)NC3=O)cc2)nc1 (configuration not stated)	0.994
CCCCCCCCCCCCC[N+](C)(C)Cc1ccccc1	0.0651

----------
Experiment: chemical genetic growth profiling, strain panel (AID 1159580);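 also: tested at 20 µM; growth read once vehicle control cultures reached saturation at 30 °C; 1 = growth at the plate median or of vehicle wells; lower values mean less growth of the strain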
Details: S. cerevisiae deletion strains, growth OD, locus YNL307C, strain MCK1, stronger effect = lower value
The whole screen tested about 5,500 compounds, of which about 2,000 (36%) were called active. Inconclusive results (about 18%) are left out. The list shows a part of the results.
Note to self: use 1 only for normalized growth readings below 1; a reading exactly at 1 still gets 0.

compound	assigned-label
COc1cc(OC)c2c(c1)O[C@H](c1ccc(OC)c(OC)c1)[C@@H](O)C2	0
NC/C=C/C(=O)O	0
NC(=O)c1ncn([C@@H]2O[C@H](CO)[C@@H](O)[C@H]2O)c1O	0
COc1cc2c(cc1OC)C(=O)C(CC1CCN(Cc3ccccc3)CC1)C2 (stereo unspecified)	1

----------
Assay: chemical genetic growth profiling, strain panel (AID 1159580);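 also: tested at 20 µM; growth read once vehicle control cultures reached saturation at 30 °C; 1 = growth at the plate median or of vehicle wells; lower values mean less growth of the strain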
Settings: S. cerevisiae deletion strains, growth OD, locus YIL066C, strain RNR3, stronger effect = lower value
Hit rate of the full screen: of about 5,500 compounds, about 2,000 (36%) were called active. Another 18% or so got no clear call; they are omitted. The list shows a part of the results.
endpoint: normalized growth

compound	endpoint	observed-measurement
C=CC(C)(C)c1c2c(c(O)c3c(=O)c4ccc(O)c(O)c4oc13)C=CC(C)(C)O2	normalized growth	0.413
C1CCc2nnnn2CC1	normalized growth	1.02
COc1c(CC=C(C)C)c2c(c3oc(=O)c(-c4ccc(O)cc4)c(O)c13)C=CC(C)(C)O2	normalized growth	0.903
CCN(CC)C(=S)SSC(=S)N(CC)CC	normalized growth	0.0508
CO[C@H]1C[C@H](O[C@H]2[C@H](C)[C@@H](OC3O[C@H](C)C[C@H](N(C)C)[C@H]3O)[C@@H](C)C[C@]3(CO3)C(=O)[C@H](C)[C@@H](O)[C@@H](C)[C@@H](C)OC(=O)[C@@H]2C)O[C@@H](C)[C@@H]1O (some centres undefined)	normalized growth	1.02
COc1cc2c(cc1OC)C(=O)C(CC1CCN(Cc3ccccc3)CC1)C2 (centres undefined)	normalized growth	0.896
COc1ccc(-c2c(O)c3cc4c(c(CC=C(C)C)c3oc2=O)OC(C)(C)CC4)cc1	normalized growth	1.01
CCc1ccc(CCOc2ccc(CC3SC(=O)NC3=O)cc2)nc1 (centres undefined)	normalized growth	1.01
c1ccc(CC2=NCCN2)cc1	normalized growth	0.987

// provenance: PubChem BioAssay AID1159580
